system: HCV 1a-H77 subgenomic replicon; assay: microbe, parasite or virus in culture; format: cell-based, HCV genotype 1a; settings: Hepatitis C virus, stable replicon, strain 1a H77, 5% FBS; read-out: 1a H77 5% FBS EC50
Please provide measured EC50 for the entries that follow.
Numbers only, in nM.

# annotated cases, reported EC50 shown
{"columns": ["Input Smiles", "Unit Text", "EC50"],
 "data": [
  ["CS(=O)(=O)CCN(c1cc2oc(-c3ccc(F)cc3)c(C3=NOCCN3)c2cc1C1CC1)S(C)(=O)=O", "nM", 8.4],
  ["COc1ccc(CN(c2cc3oc(-c4ccc(F)cc4)c(-c4ncc(C)[nH]4)c3cc2C2CC2)S(C)(=O)=O)cc1", "nM", 399],
  ["CS(=O)(=O)N(CCCS(N)(=O)=O)c1cc2oc(-c3ccc(F)cc3)c(C3=NOCN3)c2cc1C1CC1", "nM", 6.5],
  ["C=CCN(c1cc2oc(-c3ccc(F)cc3)c(-c3ncc[nH]3)c2cc1C1CC1)S(C)(=O)=O", "nM", 35.2]
]}

Can you give me EC50 for all of these, one by one?
1. CS(=O)(=O)N(CCN)c1cc2oc(-c3ccc(F)cc3)c(-c3ncc[nH]3)c2cc1C1CC1
2. COc1ccc(CN(c2cc3oc(-c4ccc(F)cc4)c(C4=NOCC(=O)N4)c3cc2C2CC2)S(C)(=O)=O)cc1
3. CS(=O)(=O)Nc1cc2oc(-c3ccc(F)cc3)c(C3=NOCN3)c2cc1C1CC1

Solution:
152
2160
809

For each of the compounds below, state EC50.
1. CCN(CC)CCN(c1cc2oc(-c3ccc(F)cc3)c(C3=NOCCN3)c2cc1C1CC1)S(C)(=O)=O
2. COc1ccc(CN(c2cc3oc(-c4ccc(F)cc4)c(-c4nc(Cl)c[nH]4)c3cc2C2CC2)S(C)(=O)=O)cc1
3. CCS(=O)(=O)CCN(c1cc2oc(-c3ccc(F)cc3)c(C3=NOCCN3)c2cc1C1CC1)S(C)(=O)=O
4. COC(=O)CCCN(c1cc2oc(-c3ccc(F)cc3)c(-c3ncc[nH]3)c2cc1C1CC1)S(C)(=O)=O
5. CSCCN(c1cc2oc(-c3ccc(F)cc3)c(-c3ncc[nH]3)c2cc1C1CC1)S(C)(=O)=O

Solution:
[80.9, 990, 11.5, 57, 13.6]

Please give EC50 for each item listed below.
1. CS(=O)(=O)CCN(c1cc2oc(-c3ccc(F)cc3)c(-c3ncc[nH]3)c2cc1C1CC1)S(C)(=O)=O
2. CS(=O)(=O)N(CCCCC(N)=O)c1cc2oc(-c3ccc(F)cc3)c(-c3ncc[nH]3)c2cc1C1CC1
3. CS(=O)(=O)N(CCCc1n[nH]c(=O)o1)c1cc2oc(-c3ccc(F)cc3)c(-c3ncc[nH]3)c2cc1C1CC1

Solution:
[7.6, 6.34, 9.8]

====

system: HCV 1a-H77 transient subgenomic replicon in Huh-7 derived cell line; test: microbe, parasite or virus in culture; assay type: cell-based, HCV genotype 1a; conditions: Hepatitis C virus, Huh-7; transient replicon, 5% FBS; read-out: Transient Replicon 1a H77 5% FBS EC50
Readout Name: EC50 (nM)
Numbers only, in nM.

Example results:
{"columns": ["Compound", "EC50 / nM"],
 "data": [
  ["CC(C)CCN(c1cc2oc(-c3ccc(F)cc3)c(C3=NOC(C)N3)c2cc1C1CC1)S(C)(=O)=O (stereo not shown) [Example 14]", 28.1],
  ["CS(=O)(=O)N(CCCC(=O)O)c1cc2oc(-c3ccc(F)cc3)c(C3=NOCN3)c2cc1C1CC1 [Example 157]", 111],
  ["C=C(c1ccccc1)c1ccc(-c2oc3cc(N(CCC(C)C)S(C)(=O)=O)c(C4CC4)cc3c2-c2ncc[nH]2)cc1 [Example 167]", 8.1]
]}

Then there is this compound:
Exercise: Which EC50 value is on record for CS(=O)(=O)N(CCCC#N)c1cc2oc(-c3ccc(F)cc3)c(-c3ncc[nH]3)c2cc1C1CC1 [Example 49] ?
Solution: 2.2

Where do the numbers come from? From patent US20160355530A1.
